Molecular target: ROCK1 (Homo sapiens (Human), UniProt Q13464)
Sequence (Q13464 whole entry): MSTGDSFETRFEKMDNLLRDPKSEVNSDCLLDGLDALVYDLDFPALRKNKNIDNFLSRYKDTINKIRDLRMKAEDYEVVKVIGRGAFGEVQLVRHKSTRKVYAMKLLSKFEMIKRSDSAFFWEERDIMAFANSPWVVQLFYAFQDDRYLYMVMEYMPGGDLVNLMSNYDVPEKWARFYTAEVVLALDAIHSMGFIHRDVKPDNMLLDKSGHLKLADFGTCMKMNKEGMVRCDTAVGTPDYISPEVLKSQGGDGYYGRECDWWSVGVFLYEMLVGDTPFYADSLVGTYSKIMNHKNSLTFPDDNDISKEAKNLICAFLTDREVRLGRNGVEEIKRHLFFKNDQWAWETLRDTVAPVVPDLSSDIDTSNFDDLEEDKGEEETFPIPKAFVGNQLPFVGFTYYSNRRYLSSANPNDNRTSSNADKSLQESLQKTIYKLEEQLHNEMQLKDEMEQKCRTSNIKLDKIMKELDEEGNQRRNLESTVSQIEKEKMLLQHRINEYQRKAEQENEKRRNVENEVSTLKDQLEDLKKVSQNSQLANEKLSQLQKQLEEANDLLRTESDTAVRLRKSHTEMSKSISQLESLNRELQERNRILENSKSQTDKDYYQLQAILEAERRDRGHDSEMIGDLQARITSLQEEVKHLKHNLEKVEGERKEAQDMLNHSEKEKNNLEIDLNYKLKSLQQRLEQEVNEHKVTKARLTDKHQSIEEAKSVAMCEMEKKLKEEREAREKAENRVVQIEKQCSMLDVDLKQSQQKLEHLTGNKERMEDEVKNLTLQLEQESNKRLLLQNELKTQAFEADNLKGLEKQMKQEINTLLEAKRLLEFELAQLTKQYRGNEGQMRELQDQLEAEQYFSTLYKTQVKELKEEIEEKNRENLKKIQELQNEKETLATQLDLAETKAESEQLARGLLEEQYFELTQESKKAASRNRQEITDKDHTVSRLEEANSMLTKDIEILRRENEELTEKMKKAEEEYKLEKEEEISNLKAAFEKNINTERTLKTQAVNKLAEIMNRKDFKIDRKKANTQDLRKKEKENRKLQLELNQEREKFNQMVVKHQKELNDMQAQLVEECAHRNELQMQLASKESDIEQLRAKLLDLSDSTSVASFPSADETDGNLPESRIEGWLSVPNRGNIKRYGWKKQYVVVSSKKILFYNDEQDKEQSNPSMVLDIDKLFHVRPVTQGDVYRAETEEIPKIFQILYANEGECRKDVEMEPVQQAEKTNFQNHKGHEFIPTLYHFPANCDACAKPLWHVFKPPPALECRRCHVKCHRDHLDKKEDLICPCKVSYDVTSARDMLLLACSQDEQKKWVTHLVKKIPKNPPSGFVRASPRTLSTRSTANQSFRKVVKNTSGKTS
Test: Z-lyte FRET assay to measure kinase inhibition, ROCK1
Assay type: biochemical
Details: read-out: ROCK1 % inhibition @ 50 μM, 50 μM compound
Rule: Satisfied for inhibition at 50 µM not less than 50%, Not satisfied for anything less.

Request: Has Nc1nccc(N2CCc3cc(S(N)(=O)=O)ccc32)n1 a recorded inhibition at 50 µM greater than or equal to 50%?
Response: Satisfied

Request: Now the compound CC(NC(=O)c1cccc2c1ccn2-c1ccnc(N)n1)c1ccccc1 (centres unmarked) [drawing 177]
Response: Satisfied

Request: Next compound up: Nc1nccc(Nc2ccccc2)n1
Response: Not satisfied

Request: Also Nc1nccc(-n2ccc3ccc(F)cc32)n1 , if possible.
Response: Satisfied

Request: What would you report for Nc1nccc(-n2ccc3c(OCc4cccc(Cl)c4F)cccc32)n1 ?
Response: Not satisfied

Request: Input Nc1nccc(Nc2ccc(S(=O)(=O)NC(=O)c3ccccc3)cc2)n1
Response: Not satisfied

Request: Now give it for Nc1nccc(Nc2ccc(S(=O)(=O)NCc3ccccc3)cc2)n1 too.
Response: Not satisfied

Request: Now the compound CC1Cc2cc(Cl)ccc2N1c1ccnc(N)n1 (centres unmarked)
Response: Satisfied
